Experiment: Liver microsome intrinsic clearance, human
Type: in vitro ADME
metricName: LM CLint (μL/min/mg/protein)
One number for each entry, in μL/min/mg/protein.

// worked examples, LM CLint included
[[record]]
compound = "C[C@H](Nc1nc(C(=O)N2CC[C@@H](O)C2)c2sc(C(F)(F)F)cc2n1)c1cccnc1 [Example Z337]"
metricname = "LM CLint"
testresult = 20.68

[[record]]
compound = "C[C@H](Nc1nc(C(=O)NCCc2ccc(O)cc2)c2sccc2n1)c1cncc(F)c1 [Example Z340]"
metricname = "LM CLint"
testresult = 258.52


Batch: LM CLint for all items listed.
1. C[C@H](Nc1nc(C(=O)N2CC[C@@H](O)C2)c2sc(C(F)(F)F)cc2n1)c1cncc(F)c1 [Example Z391]
2. CO[C@@H]1CCN(C(=O)c2nc(N[C@@H](C)c3ccccn3)nc3cc(C)sc23)C1 [Example Z312]
3. Cc1cc2nc(N[C@@H](C)c3cccnc3)nc(C(=O)N3CC[C@@H](CO)C3)c2s1 [Example Z335]

Reply:
[12.73, 10.94, 10.36]

---

Target: adenosine A2B receptor (Homo sapiens (Human), UniProt P29275)
Sequence (P29275 whole entry): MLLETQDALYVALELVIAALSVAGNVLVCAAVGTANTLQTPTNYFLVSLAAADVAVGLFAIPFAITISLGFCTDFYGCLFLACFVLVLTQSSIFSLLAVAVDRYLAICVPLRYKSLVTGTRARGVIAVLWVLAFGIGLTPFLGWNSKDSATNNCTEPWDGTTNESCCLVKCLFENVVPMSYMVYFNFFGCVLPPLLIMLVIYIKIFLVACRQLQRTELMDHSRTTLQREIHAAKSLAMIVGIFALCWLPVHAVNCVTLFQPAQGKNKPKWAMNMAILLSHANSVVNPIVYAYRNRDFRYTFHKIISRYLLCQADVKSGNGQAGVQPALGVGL
Experiment: Adenosine receptor activity assay (Table 1), A2B activity
Assay type: biochemical
Details: read-out: Ave A2B cAMP IC50
Assignment: determine reported IC50 for the given molecules.

// worked examples, IC50 included
[[record]]
molecule = "COC[C@H](Nc1nc(C(=O)NC[C@H](C)O)c2sccc2n1)c1cccnc1"
metricname = "IC50"
testresult = "> 500 nM"

[[record]]
molecule = "C[C@H](Nc1nc(C(=O)N2CC(CNC(=O)OC(C)(C)C)C2)c2sccc2n1)c1cncc(F)c1"
metricname = "IC50"
testresult = "< 10 nM"

[[record]]
molecule = "Cc1cc2nc(N[C@@H](C)c3cncc(F)c3)nc(C(=O)N3CC[C@@H](O)C3)c2s1"
metricname = "IC50"
testresult = "< 10 nM"

[[record]]
molecule = "Cc1cc2nc(N[C@@H](C)c3cncc(F)c3)nc(C(=O)NCC[C@@H]3CCNC3)c2s1"
metricname = "IC50"
testresult = "10 to 50 nM"


Batch: IC50 for all items listed.
1. CC1CCN1C(=O)c1nc(N[C@@H](C)c2cncc(F)c2)nc2ccsc12 (some centres unmarked)
2. COc1ccc(CNC(=O)c2nc(N[C@@H](C)c3ccccn3)nc3ccsc23)cn1
3. COC[C@H](Nc1nc(C(=O)NC[C@@H](C)O)c2sccc2n1)c1cccnc1
4. COc1cccc(CCNC(=O)c2nc(N[C@@H](C)c3ccccn3)nc3c(C)csc23)c1
5. O=C(c1nc(NCc2cncc(C(F)(F)F)c2)nc2ccsc12)N1CC[C@H](O)C1

Reply:
1. < 10 nM
2. 10 to 50 nM
3. > 500 nM
4. 100 to 500 nM
5. > 500 nM

---

Assignment: determine reported IC50 for the given compounds.
Molecular target: adenosine A2B receptor (Homo sapiens (Human))
Assay: Adenosine receptor activity assay (Table 1), A2B activity
Format: biochemical
Details: read-out: Ave A2B cAMP IC50

// worked examples, IC50 included
[[record]]
linenotation = "Cc1cc2nc(N[C@@H](C)c3cccnc3)nc(C(=O)N3CC(CN(C)C)C3)c2s1"
testresult = "> 0.5 µM"

[[record]]
linenotation = "Cc1cc2nc(N[C@@H](C)c3cncc(F)c3)nc(C(=O)N3CC(NC(=O)C(C)C)C3)c2s1"
testresult = "0.01 to 0.05 µM"


Batch: IC50 for all items listed.
1. Cc1cc2nc(N[C@@H](C)c3cccnc3)nc(C(=O)NCCO)c2s1
2. Cc1cc2nc(N[C@@H](C)c3cncc(F)c3)nc(C(=O)N3CC(CNC(=O)OC(C)(C)C)C3)c2s1
3. Cc1csc2c(C(=O)N3CCC3)nc(N[C@@H](C)c3cncc(F)c3)nc12
4. CCc1cc2nc(N[C@@H](C)c3cccnc3)nc(C(=O)N3CCCC3)c2s1
5. O=C(c1nc(NCc2cncc(F)c2)nc2ccsc12)N1CC[C@H](O)C1

Reply:
< 0.01 µM
0.01 to 0.05 µM
< 0.01 µM
0.1 to 0.5 µM
0.01 to 0.05 µM
